Catalogue of cytotoxicity at 70.5 h readings, one per entry.
assay: Human HepG2 cell viability assay in 384 well format; format: toxicity, cell-based; set-up: dose 125 nL, time 70.5 hour; concentration not given beside the values; conditions: HepG2 cells, read-out: Inhibition
Value expressed in %; do not type the unit.

Worked cases, answers included:
> print(dat)
                             compound  value
1  O=C(O)C1CN(c2cncc(Cc3ccccc3F)n2)C1  -6.79
2  COC(=O)CCCn1ccnc1-c1ccc(OC)c(F)c1F   3.06

query: Query: cytotoxicity at 70.5 h; subject: CN(C)Cc1nn(C)c2c1CCN(C(=O)c1cccnc1)C2
result: -20.7

query: Query: cytotoxicity at 70.5 h; subject: CSCCC(=O)N1CCCC(c2nccn2Cc2ccncc2)C1 (centres undefined)
result: -5.49

====

assay: Human HepG2 cell viability assay in 384 well format; format: toxicity, cell-based; parameters: dose 125 nL, time 70.5 hour; concentration not given beside the values; details: HepG2 cells, read-out: Inhibition
Catalogue of cytotoxicity at 70.5 h readings, one per entry.

Worked cases, answers included:
> print(dat)
                                   molecule   value
1     CN(CCN1CCCCC1)C(=O)c1cc(CN2CCOCC2)on1   2.75%
2          Cc1ccsc1C(=O)N1CCCN(Cc2cscn2)CC1  -2.76%
3  O=C(NCCC(=O)N1CCCC1)c1ccc(SCc2cccnc2)cc1   -8.9%

query: Query: cytotoxicity at 70.5 h; subject: Cc1cccnc1NC(=O)C(C)Cn1nc(C(F)(F)F)cc1C (configuration not stated)
result: -4.08%

query: Query: cytotoxicity at 70.5 h; subject: CC(C)(C)OC(=O)CNC(=O)CCc1nnc(-c2ccsc2)o1
result: 0.905%

query: Query: cytotoxicity at 70.5 h; subject: CN(Cc1ccccc1)C(=O)CCNS(=O)(=O)c1cccnc1
result: 11.8%

====

Catalogue of cytotoxicity at 70.5 h readings, one per entry.
test: Human HepG2 cell viability assay in 384 well format; format: toxicity, cell-based; parameters: dose 125 nL, time 70.5 hour; concentration not given beside the values; conditions: HepG2 cells, read-out: Inhibition
Value expressed in %; do not type the unit.

Worked cases, answers included:
> print(dat)
                                   compound           endpoint.name  value
1  CC(C)CC(NCc1cscn1)c1ccccn1 (centres undefined)  cytotoxicity at 70.5 h  -7.87
2  Cc1cc(C)c(C(=O)N(C)CCN(C)C(=O)c2[nH]c(C)cc2C)[nH]1  cytotoxicity at 70.5 h  -6.06
3       COC1CCN(C(=O)c2c(Cl)c3ccccc3n2C)CC1  cytotoxicity at 70.5 h  -9.88

Now turn to the next compound.
query: Query: cytotoxicity at 70.5 h; subject: Cc1nn(C(C)(C)C)c(C)c1C(=O)NCC1(C(N)=O)CCOCC1
result: -8.76

====

experiment: Human HepG2 cell viability assay in 384 well format; type: toxicity, cell-based; design: dose 125 nL, time 70.5 hour; concentration not given beside the values; settings: HepG2 cells, read-out: Inhibition
endpoint-name: cytotoxicity at 70.5 h
Respond with the figure and its unit, in that order.

query: Query: cytotoxicity at 70.5 h; subject: COc1ccc(CNCc2ccc(N3CCCCC3)nc2)cc1OC
result: -4.42%

query: Query: cytotoxicity at 70.5 h; subject: COc1ccc(CCNC(=O)C(C)Nc2ccc(C)c(C)c2)cc1 (stereo not given)
result: 21%

query: Query: cytotoxicity at 70.5 h; subject: CC(C)NC(=O)CCNC(=O)Nc1ccc(-n2cncn2)c(F)c1
result: -11.5%

query: Query: cytotoxicity at 70.5 h; subject: N#Cc1ccc(NCC(O)c2ccco2)c(C(F)(F)F)c1 (stereo not given)
result: -6.87%

query: Query: cytotoxicity at 70.5 h; subject: CCS(=O)(=O)N1C[C@@H]2CN(Cc3ccco3)CCO[C@@H]2C1
result: 27.9%

query: Query: cytotoxicity at 70.5 h; subject: COCCC(=O)N1CC[C@@H](N2CCN(C)CC2)[C@@H]1Cc1ccccc1
result: -1.48%
